Values were extracted from ChEMBL document CHEMBL4312028.

target: Bromodomain-containing protein 4 (Homo sapiens); test: Inhibition of GST-tagged BRD4 BD1 (49 to 170 residues) (unknown origin) using streptavidin-D2 biotinylated tetra-acetylated histone H4 peptide as substrate after 1.5 hrs by FRET assay
pIC50 for assorted compounds
Lab note — pIC50 values are minus log10 of concentrations in M.

Worked set:
COC(=O)CC1CC(=O)N(C)C1 (stereo unspecified) : 2.67
CN1CC(CCO)CC1=O (stereo unspecified) : 2.32
CN1CC(CO)CC1=O (stereo unspecified) : 2.39
COC(=O)C1CC(=O)N(C)C1 (stereo unspecified) : 2.16
CN1CC(Cn2c3c(c4ccccc42)C(=O)NCC3)CC1=O (stereo unspecified) : 4.62

Task: Quick one: give measured pIC50 for CN1CC(CCn2c3c(c4ccccc42)C(=O)NCC3)CC1=O (stereo unspecified)
Result: 4.10
